study-system: Tubulin
method: Inhibition of tubulin polymerization in human MCF7 cells by fluorometric analysis
endpoint: pIC50
Notebook: values listed as pIC50 are -log10 of the concentration (mol/L).

Task item: I'd like to know its pIC50. The molecule in question is CCn1c2ccncc2c2cc(C(=O)c3ccc(S(C)(=O)=O)cc3)ccc21
Reply: 5.37

====

Here, each record is paired with measured pIC50 data.
System: MCF7
method: Cytotoxicity against human MCF7 cells after 48 hrs by MTT assay
Type: functional, cell-based
condition-details: MCF7, 48 h
Scale: negative log10 of molar concentration, which is what pIC50 denotes.

Example molecules with recorded pIC50:
substance-smiles | pIC50
CCn1c2ccncc2c2cc(C(=O)c3ccccc3Cl)ccc21 | 4.68
CCn1c2ccc(C(=O)c3ccccc3)cc2c2c[n+](CC)ccc21 | 4.92
CCn1c2ccncc2c2cc(C(=O)c3ccccc3F)ccc21 | 5.32
CCn1c2ccc(C(=O)c3ccc(Br)cc3)cc2c2c[n+](CC)ccc21 | 4.25
CCn1c2ccncc2c2cc(C(=O)c3ccc([N+](=O)[O-])cc3)ccc21 | 5.49
CCn1c2ccncc2c2cc(C(=O)c3cccc(OC)c3)ccc21 | 5.00
CCn1c2ccncc2c2cc(C(=O)c3ccc(S(C)(=O)=O)cc3)ccc21 | 5.48
CCn1c2ccncc2c2cc(C(=O)c3ccc(Cl)cc3)ccc21 | 4.51
CCn1c2ccncc2c2cc(C(=O)c3ccc(N)cc3)ccc21 | 5.30
CCn1c2ccncc2c2cc(C(=O)c3ccc(OC)cc3)ccc21 | 5.41

Task item: Given CCn1c2ccncc2c2cc(C(=O)c3ccccc3)ccc21 , state its recorded pIC50.
Reply: 5.08
